# test system: GST-tagged recombinant human full-length TTK protein kinase (Homo sapiens, UniProt P33981)
# Construct: GST-tagged recombinant human full-length TTK protein kinase; purchased Invitrogen (Life Technologies Ltd., Paisley, U.K.)
# Sequence (P33981 whole entry): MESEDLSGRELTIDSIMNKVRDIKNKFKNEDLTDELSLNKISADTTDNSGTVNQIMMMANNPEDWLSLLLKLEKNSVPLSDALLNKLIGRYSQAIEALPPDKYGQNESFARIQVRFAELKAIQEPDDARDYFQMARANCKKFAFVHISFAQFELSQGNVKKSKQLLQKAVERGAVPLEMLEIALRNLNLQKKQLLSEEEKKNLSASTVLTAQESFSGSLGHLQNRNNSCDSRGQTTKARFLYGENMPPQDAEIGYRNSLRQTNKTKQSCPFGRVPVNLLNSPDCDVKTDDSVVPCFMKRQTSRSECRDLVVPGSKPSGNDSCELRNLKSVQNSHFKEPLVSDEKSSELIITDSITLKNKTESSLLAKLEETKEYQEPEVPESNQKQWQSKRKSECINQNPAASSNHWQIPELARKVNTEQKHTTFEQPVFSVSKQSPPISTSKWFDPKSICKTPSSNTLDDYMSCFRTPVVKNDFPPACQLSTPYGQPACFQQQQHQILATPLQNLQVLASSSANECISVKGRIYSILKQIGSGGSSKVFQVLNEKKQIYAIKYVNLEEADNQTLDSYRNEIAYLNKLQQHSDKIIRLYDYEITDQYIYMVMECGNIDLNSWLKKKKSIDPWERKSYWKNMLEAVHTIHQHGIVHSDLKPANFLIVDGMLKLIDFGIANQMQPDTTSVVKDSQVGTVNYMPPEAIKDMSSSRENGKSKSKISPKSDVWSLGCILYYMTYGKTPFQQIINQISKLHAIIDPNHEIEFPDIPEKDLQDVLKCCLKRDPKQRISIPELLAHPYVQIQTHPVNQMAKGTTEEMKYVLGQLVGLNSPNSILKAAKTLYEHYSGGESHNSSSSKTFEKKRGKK
# test summary: TTK mobility shift microfluidics assay, IC50 determination (3 nM TTK)
# Type: biochemical
# cond: 1% DMSO; 3 nM TTK, 10 μM ATP; duplicate on the same plate
For each of the molecules below, state its pIC50.
By convention, pIC50 is the negative base-10 log of a molar concentration.

Per the records, this molecule ( COc1ccc(C(=O)c2oc3cc(NC(C)=O)ccc3c2C)cc1OC ) has pIC50 equal to 5.38

Per the records, this molecule ( COc1ccc2c(c1)[nH]c1c(C)nccc12 ) has pIC50 equal to 3.80

Per the records, this molecule ( COc1ccc(Nc2ncnc3c2cnn3C)cc1OC ) has pIC50 equal to 4.71

Per the records, this molecule ( Nc1nnc2c([nH]c3ccccc32)c1-c1ccccc1 ) has pIC50 equal to 4.28

Per the records, this molecule ( COc1ccc(Nc2cc(-c3ccccc3)ncn2)cc1OC ) has pIC50 equal to 5.00

Per the records, this molecule ( COc1ccc(Nc2cc(Cl)nc(N)n2)cc1OC ) has pIC50 equal to 4.25

Per the records, this molecule ( COc1ccc(Nc2cc(C)nc(SC)n2)cc1OC ) has pIC50 equal to 4.71

Per the records, this molecule ( COc1ccc(Nc2ncnc3nc[nH]c23)cc1OC ) has pIC50 equal to 4.39

Per the records, this molecule ( COc1ccc(Nc2ncnc3sc(-c4ccccc4)cc23)cc1OC ) has pIC50 equal to 5.68

Per the records, this molecule ( c1ccc(-c2nc3cnccc3[nH]2)nc1 ) has pIC50 equal to 4.04

Per the records, this molecule ( COc1ccc(Nc2ncnc3[nH]ncc23)cc1OC ) has pIC50 equal to 4.48

Per the records, this molecule ( COc1ccc(Nc2nc(N)nc3nc[nH]c23)cc1OC ) has pIC50 equal to 5.11

---

# test system: GST-tagged recombinant human full-length TTK protein kinase (Homo sapiens, UniProt P33981)
# Construct: GST-tagged recombinant human full-length TTK protein kinase; purchased Invitrogen (Life Technologies Ltd., Paisley, U.K.)
# test summary: TTK mobility shift microfluidics assay, single-concentration percent inhibition screen
# Type: biochemical
# cond: compound at 400 μM (fragment-like, MW < 300 Da); 12.5 nM TTK, 10 μM ATP; mean of duplicate ± SD
# Method: The TTK kinase activity was measured in a mobility shift microfluidics assay with the Caliper LabChip EZReader II (Caliper Life Sciences, Hopkinton, MA, U.S.A.). For the initial percent inhibition compound screen, all compounds were tested at 40 μM, and fragment-like compounds (MW < 300 Da) were also tested at 400 μM. […] The assay plate was then analyzed using the EZReader II. […]
For each of the compounds below, state its inhibition at 400 µM.
Number only, in %; omit the unit.

GST-tagged recombinant human full-length TTK protein kinase (Homo sapiens, UniProt P33981) assay, compound COc1ccc(Nc2cc(C)nc3ncnn23)cc1OC [Compound 24] , recorded inhibition at 400 µM = 34.5

GST-tagged recombinant human full-length TTK protein kinase (Homo sapiens, UniProt P33981) assay, compound Nc1nnc2c([nH]c3ccccc32)c1-c1ccccc1 [Compound 2] , recorded inhibition at 400 µM = 56

GST-tagged recombinant human full-length TTK protein kinase (Homo sapiens, UniProt P33981) assay, compound COc1ccc(Nc2cc(Cl)nc(N)n2)cc1OC [Compound 19] , recorded inhibition at 400 µM = 96.5

GST-tagged recombinant human full-length TTK protein kinase (Homo sapiens, UniProt P33981) assay, compound c1ccc(-c2nc3cnccc3[nH]2)nc1 [Compound 6] , recorded inhibition at 400 µM = 66

GST-tagged recombinant human full-length TTK protein kinase (Homo sapiens, UniProt P33981) assay, compound c1cc2cnc3sccc3c2cn1 [Compound 3, Thieno[2,3-c][2,6]naphthyridine] , recorded inhibition at 400 µM = 106

GST-tagged recombinant human full-length TTK protein kinase (Homo sapiens, UniProt P33981) assay, compound COc1ccc(Nc2cc(C)nc(SC)n2)cc1OC [Compound 15] , recorded inhibition at 400 µM = 75.5

GST-tagged recombinant human full-length TTK protein kinase (Homo sapiens, UniProt P33981) assay, compound c1cc2c(cn1)cnc1sccc12 [Compound 7, thieno[2,3-c][2,7]naphthyridine] , recorded inhibition at 400 µM = 94.5

GST-tagged recombinant human full-length TTK protein kinase (Homo sapiens, UniProt P33981) assay, compound COc1ccc(Nc2ccc3nnnn3n2)cc1OC [Compound 20] , recorded inhibition at 400 µM = 24.5

GST-tagged recombinant human full-length TTK protein kinase (Homo sapiens, UniProt P33981) assay, compound COc1ccc(Nc2ncnc3[nH]ncc23)cc1OC [Compound 17] , recorded inhibition at 400 µM = 67

GST-tagged recombinant human full-length TTK protein kinase (Homo sapiens, UniProt P33981) assay, compound Cc1ccc2[nH]c3c(N4CCCCC4)ncnc3c2c1 [Compound 9] , recorded inhibition at 400 µM = 55.5
